All values here come from the supplement of paper PMC9170038.

System: MS2 coat protein
Assay: apparent KD of MS2 coat protein; designed switch direction (-1 OFF switch, 1 ON switch): 1; higher = weaker reporter binding
Conditions: input ligand: none
Measurement name: apparent KD of MS2 coat protein

| Primary sequence | Assayed target | Measurement name | Assay value |
| --- | --- | --- | --- |
| UCUGCAAGAACAGGAUAUGGGUUCAGAGCGCGAGUGCGCUUUGACACAUGAGGAUCACCCAUGUCCCAGAAGGGUUCAAGCGGC [Cexezadi] (Eterna round: R96, puzzle: Same State NG 2) | MS2 coat protein | apparent KD of MS2 coat protein | 385 nM |
| AAAAGACAUGAGGAUCACCCAUGUCAAGACGUGGGAGGAUAUGCAUGGAAAACAUGCUGUGCAGAAGGCCCGUGUC [SS1 - 20] (Eterna round: R96, puzzle: Same State 1) | MS2 coat protein | apparent KD of MS2 coat protein | 24 nM |

Continue with the next sequence.
Entry AGAUGUUAAUCAGGAUAUGGGCACAUGAGGAUCACCCAUGUAAAUUCGAUACUAUGUGGACACGUCUAGAAGGGAUGGCUAACA [SameState NG2 #83] (Eterna round: R96, puzzle: Same State NG 2) ; assay system MS2 coat protein; apparent KD of MS2 coat protein recorded at 106 nM
